pIC50: −log10 of the molar value.
In what follows, each item is paired with its pIC50 for CRTh2 receptor (Homo sapiens).
VALUE TYPE: pIC50

Cc1c(Cc2ccccc2S(=O)(=O)c2ccccc2)c2c(n1[C@H](C)C(=O)O)CCNC2=O [Example 20]
8.04
Cc1c(Cc2ccccc2S(=O)(=O)c2ccccc2)c2c(n1CC(=O)O)CCNC2=O [Example 2]
8.34

1. COC(=O)c1ccc(Cc2c3c(n(CC(=O)O)c2C)CCNC3=O)c(S(=O)(=O)c2ccccc2)c1 [Example 28]
2. COc1ccc(S(=O)(=O)c2ccccc2)c(Cc2c3c(n(CC(=O)O)c2C)CCNC3=O)c1 [Example 6]
Given the listed records, identify the one among 1 and 2 with higher pIC50. Refer to your chosen item by its label in the answer.
2
